Each item that follows carries a reported peptide exchange yield.
target: HLA-A*24 (human)
experiment.summary: UV peptide exchange ELISA

Problem: I have this binder here, `NYIYSISVF` , and I need its recorded peptide exchange yield.
Solution: > 75%

Problem: State the recorded peptide exchange yield for this entry: `YYADKKTFIVL`
Solution: 50 to 75%

Problem: What does the record list as peptide exchange yield for `YYSKSVGFMQW` ?
Solution: > 75%

Problem: Consider the binder shown here: `YLEKFYGL` What is its recorded peptide exchange yield?
Solution: 20 to 50%
